- system.under.test: Growth factor receptor-bound protein 2 (Homo sapiens)
- Sequence (P62993 whole entry): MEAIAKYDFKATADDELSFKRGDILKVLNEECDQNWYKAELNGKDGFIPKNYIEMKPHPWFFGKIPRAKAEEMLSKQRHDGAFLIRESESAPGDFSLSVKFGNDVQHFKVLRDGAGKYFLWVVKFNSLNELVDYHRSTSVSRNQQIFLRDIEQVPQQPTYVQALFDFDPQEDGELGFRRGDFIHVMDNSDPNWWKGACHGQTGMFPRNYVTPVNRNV
- method: Dissociation constant of compound was determined from affinity of compound towards Growth factor receptor bound protein 2 measured by fluorescence
pKd: −log10 of the molar value. Square brackets hold non-standard residues; d marks the D form. Peptide text beside a SMILES is read from it. F2Pmp = N[C@@H](Cc1ccc(C(F)(F)P(=O)(O)O)cc1)C(=O)O; Pmp = N[C@@H](Cc1ccc(CP(=O)(O)O)cc1)C(=O)O; pY = N[C@@H](Cc1ccc(OP(=O)(O)O)cc1)C(=O)O
parameter: pKd

compound: CC(C)[C@H](NC(=O)[C@H](CC(N)=O)NC(=O)[C@@H](NC(=O)[C@H](Cc1ccc(OP(=O)(O)O)cc1)NC(=O)[C@H](CO)NC(=O)[C@@H]1CCCN1)C(C)C)C(=O)N[C@@H](CCC(N)=O)C(=O)N[C@@H](CC(N)=O)C(=O)O (H-PS[pY]VNVQN-OH)
parameter: pKd
number: 7.74
//
compound: CC(C)[C@H](NC(=O)[C@H](CC(N)=O)NC(=O)[C@@H](NC(=O)[C@H](Cc1ccc(CP(=O)(O)O)cc1)NC(=O)[C@H](CO)NC(=O)[C@@H]1CCCN1)C(C)C)C(=O)N[C@@H](CCC(N)=O)C(=O)N[C@@H](CC(N)=O)C(=O)O (H-PS[Pmp]VNVQN-OH)
parameter: pKd
number: 6.59
//
compound: CC(=O)N1CCC[C@H]1C(=O)N[C@@H](Cc1ccccc1)C(=O)N[C@@H](Cc1ccc(OP(=O)(O)O)cc1)C(=O)N[C@H](C(=O)N[C@@H](CC(N)=O)C(=O)N[C@H](C(=O)N1CCC[C@H]1C(N)=O)C(C)C)C(C)C (Ac-PF[pY]VNVP-NH2)
parameter: pKd
number: 7.52
//
compound: CC(C)[C@H](NC(=O)[C@H](CC(N)=O)NC(=O)[C@@H](NC(=O)[C@H](Cc1ccc(C(F)(F)P(=O)(O)O)cc1)NC(=O)[C@H](CO)NC(=O)[C@@H]1CCCN1)C(C)C)C(=O)N[C@@H](CCC(N)=O)C(=O)N[C@@H](CC(N)=O)C(=O)O (H-PS[F2Pmp]VNVQN-OH)
parameter: pKd
number: 6.70
